- subject_of_test: hSCN9A (Homo sapiens)
- Construct: expressed in transfected cells
- Sequence (Q15858 whole entry): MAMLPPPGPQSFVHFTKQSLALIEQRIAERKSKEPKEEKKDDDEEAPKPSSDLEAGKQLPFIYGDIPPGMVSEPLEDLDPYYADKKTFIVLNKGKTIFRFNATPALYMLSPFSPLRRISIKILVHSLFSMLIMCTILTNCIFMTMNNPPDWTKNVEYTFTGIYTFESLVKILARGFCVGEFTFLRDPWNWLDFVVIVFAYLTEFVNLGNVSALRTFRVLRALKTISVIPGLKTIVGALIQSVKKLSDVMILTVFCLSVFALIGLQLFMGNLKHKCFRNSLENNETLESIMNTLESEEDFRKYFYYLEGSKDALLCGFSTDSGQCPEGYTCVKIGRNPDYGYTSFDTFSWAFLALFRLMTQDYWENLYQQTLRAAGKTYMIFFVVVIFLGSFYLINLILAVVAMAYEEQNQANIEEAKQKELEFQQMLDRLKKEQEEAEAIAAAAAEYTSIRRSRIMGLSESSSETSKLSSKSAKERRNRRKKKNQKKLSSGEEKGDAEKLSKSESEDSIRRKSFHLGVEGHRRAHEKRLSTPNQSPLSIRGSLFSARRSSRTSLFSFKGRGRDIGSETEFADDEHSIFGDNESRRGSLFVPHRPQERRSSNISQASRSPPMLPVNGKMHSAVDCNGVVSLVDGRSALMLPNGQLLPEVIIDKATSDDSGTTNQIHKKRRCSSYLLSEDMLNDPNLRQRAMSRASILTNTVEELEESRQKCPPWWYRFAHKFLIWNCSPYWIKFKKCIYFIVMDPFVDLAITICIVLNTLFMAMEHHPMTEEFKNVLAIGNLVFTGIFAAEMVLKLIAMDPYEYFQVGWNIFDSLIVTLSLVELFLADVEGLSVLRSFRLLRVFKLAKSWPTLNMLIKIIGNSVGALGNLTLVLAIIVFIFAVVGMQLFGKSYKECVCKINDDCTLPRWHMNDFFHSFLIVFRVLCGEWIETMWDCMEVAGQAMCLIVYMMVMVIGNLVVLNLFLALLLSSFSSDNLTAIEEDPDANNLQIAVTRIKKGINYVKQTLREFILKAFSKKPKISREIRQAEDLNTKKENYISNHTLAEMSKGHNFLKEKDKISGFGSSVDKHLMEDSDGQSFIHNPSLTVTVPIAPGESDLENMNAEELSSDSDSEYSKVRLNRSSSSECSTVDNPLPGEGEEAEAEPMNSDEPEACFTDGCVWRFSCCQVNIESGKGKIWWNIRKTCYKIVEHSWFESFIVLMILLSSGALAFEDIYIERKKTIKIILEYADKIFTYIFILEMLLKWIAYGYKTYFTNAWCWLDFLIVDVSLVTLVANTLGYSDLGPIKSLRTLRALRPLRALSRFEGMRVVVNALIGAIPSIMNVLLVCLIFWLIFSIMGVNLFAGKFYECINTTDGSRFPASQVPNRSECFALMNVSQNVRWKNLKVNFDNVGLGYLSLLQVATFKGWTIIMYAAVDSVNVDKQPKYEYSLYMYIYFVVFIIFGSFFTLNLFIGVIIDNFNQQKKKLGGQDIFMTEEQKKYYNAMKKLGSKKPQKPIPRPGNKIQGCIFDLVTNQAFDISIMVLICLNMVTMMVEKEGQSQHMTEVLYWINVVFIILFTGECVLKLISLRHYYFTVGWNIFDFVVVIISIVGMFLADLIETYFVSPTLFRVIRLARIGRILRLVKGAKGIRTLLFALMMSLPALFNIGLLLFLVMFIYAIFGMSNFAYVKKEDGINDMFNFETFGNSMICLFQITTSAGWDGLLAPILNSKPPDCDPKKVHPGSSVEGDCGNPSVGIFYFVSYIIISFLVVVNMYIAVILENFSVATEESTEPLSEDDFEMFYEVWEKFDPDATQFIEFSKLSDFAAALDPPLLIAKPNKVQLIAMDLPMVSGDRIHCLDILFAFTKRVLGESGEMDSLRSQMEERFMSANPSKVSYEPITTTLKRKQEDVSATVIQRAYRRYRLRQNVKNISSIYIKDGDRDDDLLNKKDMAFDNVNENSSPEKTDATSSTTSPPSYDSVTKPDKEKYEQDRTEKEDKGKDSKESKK
- assay_overview: Whole-cell patch-clamp electrophysiology (conventional or PatchXpress), HEK cells expressing hSCN9A, estimated IC-50
- Assay type: cell-based
- experimental_context: estimated IC-50, HEK cells expressing hSCN9A; class symbols or bounds; read-out: SCN9A EIC-50
- Experimental: Human Embryonic Kidney (HEK) cells were transfected with hSCN3A or hSCN9A constructs using lipofectamine reagent (Invitrogen), using standard techniques. […] The voltage-dependence of inactivation was determined by applying a series of depolarizing prepulses (8 sec long in 10 mV increments) from a negative holding potential. […] Cells were then voltage clamped at the empirically determined V1/2. […]
pIC50: −log10 of the molar value.
pIC50 values, listed per item
metric_name: pIC50

compound: COc1ccc(Cn2ccc(Nc3ccc(S(=O)(=O)Nc4nccs4)c(F)c3)n2)cc1 [Compound 224]
reported: > 5.70
--
compound: O=S(=O)(Nc1nccs1)c1ccc(Nc2cc(CC(F)(F)F)nn2-c2ccccc2F)cc1F [Compound 204]
reported: > 5.70
--
compound: Cc1ccc(Cc2cc(Nc3ccc(S(=O)(=O)Nc4nccs4)c(F)c3)[nH]n2)cc1 [Compound 165]
reported: > 5.70
--
compound: O=S(=O)(Nc1nccs1)c1ccc(Nc2nc(COc3ccccc3)cs2)cc1 [Compound 48]
reported: < 6.00
